- System: hα2A adrenergic receptor (Homo sapiens, UniProt P08913)
- Construct: expressed in transfected cells; host or cells: Chinese hamster lung cells (membrane preparations)
- Protocol: Radioligand binding at hα2A adrenergic receptor ([3H]rauwolscine)
So I've got a bunch of molecules here, and I need their Ki values.
Return type: number; implicit unit µM.

# input // fetch Ki given entry COc1cc(CCN)cc(OC)c1OC(CF)CF
# output 2.7

# input // fetch Ki given entry COc1cc(CCN)cc(OC)c1OCC(F)(F)F
# output 2.3

# input // fetch Ki given entry COc1cc(CCN)cc(OC)c1OC(C)C
# output 1.2

----------
- System: mouse TAAR1 (Mus musculus, UniProt Q923Y8)
- Construct: expressed in transfected cells; host or cells: HEK 293 cells (membrane preparations)
- Sequence (Q923Y8 whole entry): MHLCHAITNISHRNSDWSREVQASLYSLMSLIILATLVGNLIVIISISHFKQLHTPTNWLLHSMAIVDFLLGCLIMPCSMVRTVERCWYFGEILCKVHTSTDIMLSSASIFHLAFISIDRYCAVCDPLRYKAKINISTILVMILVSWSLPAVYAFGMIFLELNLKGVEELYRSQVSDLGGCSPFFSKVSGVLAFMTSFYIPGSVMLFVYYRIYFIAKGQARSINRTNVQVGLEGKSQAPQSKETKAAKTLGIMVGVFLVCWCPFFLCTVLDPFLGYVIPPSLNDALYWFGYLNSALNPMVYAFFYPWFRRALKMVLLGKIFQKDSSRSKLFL
- Protocol: Radioligand binding at mouse TAAR1 ([3H]RO5166017)
pKi: −log10 of the molar value.
Property measured: pKi

# input // fetch pKi given entry COc1cc(CCN)cc(OC)c1OC(F)F
# output < 5.38

# input // fetch pKi given entry COc1cc(CCN)cc(OC)c1OC(CF)CF
# output < 5.38

# input // fetch pKi given entry COc1cc(CCN)cc(OC)c1OCCC(F)(F)F
# output < 5.38

# input // fetch pKi given entry CCOc1c(OC)cc(CC(C)N)cc1OC (stereo not shown)
# output < 5.38

# input // fetch pKi given entry COc1cc(CCN)cc(OC)c1OC(F)(F)F
# output 5.72

# input // fetch pKi given entry COc1cc(CC(C)N)cc(OC)c1OC (stereo not shown)
# output 5.74

# input // fetch pKi given entry COc1cc(CCN)cc(OC)c1OCCCF
# output < 5.38

# input // fetch pKi given entry COc1cc(CCN)cc(OC)c1OCCF
# output < 5.38

# input // fetch pKi given entry COc1cc(CCN)cc(OC)c1OC(C)C
# output < 5.38

# input // fetch pKi given entry C=C(C)COc1c(OC)cc(CCN)cc1OC
# output 5.41

----------
- System: rat TAAR1 (Rattus norvegicus, UniProt Q923Y9)
- Construct: expressed in transfected cells; host or cells: HEK 293 cells (membrane preparations)
- Sequence (Q923Y9 whole entry): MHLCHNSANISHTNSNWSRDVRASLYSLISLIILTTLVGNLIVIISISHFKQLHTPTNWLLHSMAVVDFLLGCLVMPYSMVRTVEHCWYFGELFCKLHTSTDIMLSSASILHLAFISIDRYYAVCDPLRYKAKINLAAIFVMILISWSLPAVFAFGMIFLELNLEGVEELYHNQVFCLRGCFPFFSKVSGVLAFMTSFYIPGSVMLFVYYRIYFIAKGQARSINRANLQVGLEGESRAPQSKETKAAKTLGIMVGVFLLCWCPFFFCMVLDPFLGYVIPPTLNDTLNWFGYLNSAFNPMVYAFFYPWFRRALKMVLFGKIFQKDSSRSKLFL
- Protocol: Radioligand binding at rat TAAR1 ([3H]RO5166017)
Property measured: Ki (nM)
Return type: number; implicit unit nM.

# input // fetch Ki given entry COc1cc(CCN)cc(OC)c1OC(F)F
# output 880

# input // fetch Ki given entry COc1cc(CCN)cc(OC)c1OC
# output 3000

# input // fetch Ki given entry C=CCOc1c(OC)cc(CC(C)N)cc1OC (stereo not drawn)
# output 3600

# input // fetch Ki given entry CCCOc1c(OC)cc(CC(C)N)cc1OC (stereo not drawn)
# output 3400

# input // fetch Ki given entry COc1cc(CCN)cc(OC)c1OCC(F)(F)F
# output 1200

# input // fetch Ki given entry COc1cc(CCN)cc(OC)c1OCCCF
# output 1700

# input // fetch Ki given entry COc1cc(CCN)cc(OC)c1OC(F)(F)F
# output 170

# input // fetch Ki given entry COc1cc(CC(C)N)cc(OC)c1OC(F)F (stereo not drawn)
# output 380

# input // fetch Ki given entry COc1cc(CCN)cc(OC)c1OC1CC1
# output 1200

# input // fetch Ki given entry COc1cc(CCN)cc(OC)c1OCCC(F)(F)F
# output 910

# input // fetch Ki given entry COc1cc(CC(C)N)cc(OC)c1OC (stereo not drawn)
# output 3200

# input // fetch Ki given entry C=C(C)COc1c(OC)cc(CCN)cc1OC
# output 1000

# input // fetch Ki given entry COc1cc(CCN)cc(OC)c1OCC(F)F
# output 2100

# input // fetch Ki given entry COc1cc(CC(C)N)cc(OC)c1OCC(F)F (stereo not drawn)
# output 3900

# input // fetch Ki given entry COc1cc(CCN)cc(OC)c1OCc1ccccc1
# output 110

----------
So I've got a bunch of compounds here, and I need their Selectivity 5-HT2A vs. 5-HT1A values.
- System: h5-HT2A receptor (Homo sapiens)
- Construct: expressed in transfected cells; host or cells: HEK 293 cells (membrane preparations)
- Protocol: Radioligand binding at h5-HT2A receptor ([3H]ketanserin)
- Details: binding ratio
Write the number on its own, no unit after it.

# input // fetch Selectivity 5-HT2A vs. 5-HT1A given entry COc1cc(CCN)cc(OC)c1OC1CC1 [compound 29]
# output 0.9

# input // fetch Selectivity 5-HT2A vs. 5-HT1A given entry COc1cc(CCN)cc(OC)c1OCc1ccccc1 [compound 33, 4-benzyloxy-3,5-dimethoxyphenethylamine]
# output 29

# input // fetch Selectivity 5-HT2A vs. 5-HT1A given entry C=C(C)COc1c(OC)cc(CCN)cc1OC [compound 32]
# output 9.3

# input // fetch Selectivity 5-HT2A vs. 5-HT1A given entry COc1cc(CCN)cc(OC)c1OC(F)(F)F [compound 13]
# output 7.9

# input // fetch Selectivity 5-HT2A vs. 5-HT1A given entry COc1cc(CCN)cc(OC)c1OC(F)F [compound 12]
# output 0.7

----------
- System: h5-HT2A receptor (Homo sapiens, UniProt P28223)
- Construct: expressed in transfected cells; host or cells: HEK 293 cells (membrane preparations)
- Sequence (P28223 whole entry): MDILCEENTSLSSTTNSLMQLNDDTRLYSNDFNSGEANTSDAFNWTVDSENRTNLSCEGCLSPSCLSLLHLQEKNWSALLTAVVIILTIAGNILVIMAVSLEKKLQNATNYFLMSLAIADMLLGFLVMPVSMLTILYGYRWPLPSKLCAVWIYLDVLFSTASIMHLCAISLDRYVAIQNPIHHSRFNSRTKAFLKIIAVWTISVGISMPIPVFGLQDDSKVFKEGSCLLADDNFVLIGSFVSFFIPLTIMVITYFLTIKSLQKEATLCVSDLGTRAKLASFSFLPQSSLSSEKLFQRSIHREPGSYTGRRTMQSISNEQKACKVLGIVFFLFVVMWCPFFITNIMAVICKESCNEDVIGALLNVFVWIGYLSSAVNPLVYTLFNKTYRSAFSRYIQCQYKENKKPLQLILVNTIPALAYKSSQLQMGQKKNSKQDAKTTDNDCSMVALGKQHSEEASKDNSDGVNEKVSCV
- Protocol: Radioligand binding at h5-HT2A receptor ([3H]ketanserin)
- Details: binding ratio
We label by threshold. Values of Selectivity 5-HT2A vs. 5-HT2C strictly beneath 0.9 are Fulfilled. Values of 0.9 and up are Not fulfilled.

# input Confirm or reject: Selectivity 5-HT2A vs. 5-HT2C of COc1cc(CC(C)N)cc(OC)c1OCCCF (stereo not shown) lies strictly below 0.9
# output Not fulfilled

# input Confirm or reject: Selectivity 5-HT2A vs. 5-HT2C of COc1cc(CCN)cc(OC)c1OC(F)F lies strictly below 0.9
# output Fulfilled

# input Confirm or reject: Selectivity 5-HT2A vs. 5-HT2C of COc1cc(CC(C)N)cc(OC)c1OC(F)F (stereo not shown) lies strictly below 0.9
# output Not fulfilled

# input Confirm or reject: Selectivity 5-HT2A vs. 5-HT2C of COc1cc(CCN)cc(OC)c1OCCCF lies strictly below 0.9
# output Fulfilled

----------
- System: hα2A adrenergic receptor (Homo sapiens)
- Construct: expressed in transfected cells; host or cells: Chinese hamster lung cells (membrane preparations)
- Sequence (P08913 1-465): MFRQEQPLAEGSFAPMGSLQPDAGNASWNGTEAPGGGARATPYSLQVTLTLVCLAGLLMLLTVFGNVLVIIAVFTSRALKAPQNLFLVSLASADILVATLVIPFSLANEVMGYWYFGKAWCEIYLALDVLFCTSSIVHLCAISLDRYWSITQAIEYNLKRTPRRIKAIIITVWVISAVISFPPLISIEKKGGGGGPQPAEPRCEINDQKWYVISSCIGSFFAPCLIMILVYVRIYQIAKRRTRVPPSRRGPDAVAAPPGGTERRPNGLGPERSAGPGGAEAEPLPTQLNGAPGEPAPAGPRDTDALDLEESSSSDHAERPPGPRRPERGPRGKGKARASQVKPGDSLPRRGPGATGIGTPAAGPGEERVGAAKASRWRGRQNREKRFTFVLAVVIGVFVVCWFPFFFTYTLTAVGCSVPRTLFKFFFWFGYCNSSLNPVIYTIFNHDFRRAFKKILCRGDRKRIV
- Protocol: Radioligand binding at hα2A adrenergic receptor ([3H]rauwolscine)
Property measured: Ki

# input // fetch Ki given entry COc1cc(CC(C)N)cc(OC)c1OCCCF (stereo not drawn)
# output > 5.1 µM

# input // fetch Ki given entry C=CCOc1c(OC)cc(CC(C)N)cc1OC (stereo not drawn)
# output > 5.1 µM

# input // fetch Ki given entry COc1cc(CC(C)N)cc(OC)c1OCC(F)F (stereo not drawn)
# output > 5.1 µM

----------
- System: mouse TAAR1 (Mus musculus, UniProt Q923Y8)
- Construct: expressed in transfected cells; host or cells: HEK 293 cells (membrane preparations)
- Protocol: Radioligand binding at mouse TAAR1 ([3H]RO5166017)
pKi: −log10 of the molar value.
Property measured: pKi

# input // fetch pKi given entry COc1cc(CCN)cc(OC)c1OCC(F)(F)F
# output < 5.38

# input // fetch pKi given entry COc1cc(CC(C)N)cc(OC)c1OCC(F)F (stereo not drawn)
# output < 5.38

# input // fetch pKi given entry COc1cc(CC(C)N)cc(OC)c1OCCF (stereo not drawn)
# output < 5.38

----------
- System: rat TAAR1 (Rattus norvegicus)
- Construct: expressed in transfected cells; host or cells: HEK 293 cells (membrane preparations)
- Protocol: Radioligand binding at rat TAAR1 ([3H]RO5166017)
pKi: −log10 of the molar value.
Property measured: pKi

# input // fetch pKi given entry COc1cc(CCN)cc(OC)c1OC(C)C
# output < 5.33

# input // fetch pKi given entry COc1cc(CCN)cc(OC)c1OCCF
# output < 5.40

# input // fetch pKi given entry COc1cc(CCN)cc(OC)c1OC(CF)CF
# output < 5.33

# input // fetch pKi given entry COc1cc(CC(C)N)cc(OC)c1OCCCF (stereo not drawn)
# output < 5.33

# input // fetch pKi given entry COc1cc(CC(C)N)cc(OC)c1OCCF (stereo not drawn)
# output < 5.33

# input // fetch pKi given entry CCOc1c(OC)cc(CC(C)N)cc1OC (stereo not drawn)
# output < 5.33
